Assay read-out pIC50 on Fatty-acid amide hydrolase 1 (Rattus norvegicus, UniProt P97612); records merged from the literature.
Would you please state pIC50, meaning minus log10 of the concentration in mol/L, as a bare number?

Q: What value of pIC50 has been recorded for this entry: O=C(Nc1noc2ccccc12)N1CCCC(Cc2cccc(C(F)(F)F)c2)C1 (stereo not shown)
Ans: 7.30

Q: Item O=C(CCc1ccc(-c2ccccc2)cc1)c1ncc(-c2cccc(-c3nnn[nH]3)n2)o1 has what recorded pIC50?
Ans: 8.05

Q: Form field: reported pIC50 of Cc1cccc2cc(CN3CCC(CCCC(=O)c4ncco4)CC3)c(Cl)nc12
Ans: 8.10

Q: pIC50 for O=C(O)c1ccc(-c2cnc(C(=O)CCc3ccc(-c4ccccc4)cc3)o2)cn1 ?
Ans: 7.36

###

Hi, quick share: literature pIC50 data for UniProt:P97612, several sources combined.
pIC50 is a log-scale quantity: -log10 of the concentration expressed in molar.

A selection of reference data follows.
Molecule: O=C(CCCC1CCN(Cc2ccc3c(c2)OC(F)(F)O3)CC1)c1ncco1
Quantity: pIC50
Observed Result: 7.09

Molecule: O=C(CCCC1CCN(Cc2cc(F)ccc2F)CC1)c1ncco1
Quantity: pIC50
Observed Result: 6.50

Molecule: O=C(O)c1cc(-c2cnc(C(=O)CCc3ccc(-c4ccccc4)cc3)o2)ccn1
Quantity: pIC50
Observed Result: 8.52

Molecule: O=C(CCCC1CCN(Cc2ccc(C(F)(F)F)c(F)c2)CC1)c1ncco1
Quantity: pIC50
Observed Result: 6.42

Molecule: O=C(CCCC1CCN(Cc2ccccc2)CC1)c1ncc(-c2ccco2)o1
Quantity: pIC50
Observed Result: 6.49

Molecule: O=C(CCCC1CCN(Cc2ccc(F)cc2)CC1)c1ncco1
Quantity: pIC50
Observed Result: 6.00

Q: Give the reported pIC50 for O=C(Nc1ccncn1)N1CCCC(Cc2cccc(C(F)(F)F)c2)C1 (stereo not drawn) (system: UniProt:P97612).
Ans: 5.00

Q: Write down the reported pIC50 of CC(C)(C)Oc1ccc(CN2CCC(CCCC(=O)c3ncco3)CC2)cc1 , test system: UniProt:P97612.
Ans: 7.74

###

pIC50: −log10 of the molar value.
Assay read-out pIC50 on Fatty-acid amide hydrolase 1 (Rattus norvegicus); records merged from the literature.
Could you label it rule met if measured pIC50 is 7 or higher, and rule not met otherwise?

The following molecules have reported results that may help.
Molecule: O=C(CCCC1CCN(Cc2ccc(N3CCCCC3)nc2)CC1)c1ncco1
Tgt: Fatty-acid amide hydrolase 1 (Rattus norvegicus)
Assigned Category: rule not met
//
Molecule: O=C(CCCC1CCN(C(=O)c2ccccc2)CC1)c1ncco1
Tgt: Fatty-acid amide hydrolase 1 (Rattus norvegicus)
Assigned Category: rule not met
//
Molecule: COC(=O)c1ccc(-c2cnc(C(=O)CCc3ccc(-c4ccccc4)cc3)o2)cn1
Tgt: Fatty-acid amide hydrolase 1 (Rattus norvegicus)
Assigned Category: rule met
//
Molecule: O=C(Nc1ccncc1)N1CCN(c2nc(-c3ccccc3)ns2)CC1
Tgt: Fatty-acid amide hydrolase 1 (Rattus norvegicus)
Assigned Category: rule met

# ---- query molecule ----
Q: Check this molecule for pIC50 at or above 7: O=C(Nc1ccon1)N1CCCC(Cc2cccc(C(F)(F)F)c2)C1 (stereo not shown)
Ans: rule not met
